Let's look at some compounds and their measured DC50.
# subject-of-test: SMARCA4 (Homo sapiens)
# Construct: SMARCA2 and SMARCA4 protein degradation in MV4-11 cells; endogenous in cells; host or cells: MV4-11
# Sequence (P51532 whole entry): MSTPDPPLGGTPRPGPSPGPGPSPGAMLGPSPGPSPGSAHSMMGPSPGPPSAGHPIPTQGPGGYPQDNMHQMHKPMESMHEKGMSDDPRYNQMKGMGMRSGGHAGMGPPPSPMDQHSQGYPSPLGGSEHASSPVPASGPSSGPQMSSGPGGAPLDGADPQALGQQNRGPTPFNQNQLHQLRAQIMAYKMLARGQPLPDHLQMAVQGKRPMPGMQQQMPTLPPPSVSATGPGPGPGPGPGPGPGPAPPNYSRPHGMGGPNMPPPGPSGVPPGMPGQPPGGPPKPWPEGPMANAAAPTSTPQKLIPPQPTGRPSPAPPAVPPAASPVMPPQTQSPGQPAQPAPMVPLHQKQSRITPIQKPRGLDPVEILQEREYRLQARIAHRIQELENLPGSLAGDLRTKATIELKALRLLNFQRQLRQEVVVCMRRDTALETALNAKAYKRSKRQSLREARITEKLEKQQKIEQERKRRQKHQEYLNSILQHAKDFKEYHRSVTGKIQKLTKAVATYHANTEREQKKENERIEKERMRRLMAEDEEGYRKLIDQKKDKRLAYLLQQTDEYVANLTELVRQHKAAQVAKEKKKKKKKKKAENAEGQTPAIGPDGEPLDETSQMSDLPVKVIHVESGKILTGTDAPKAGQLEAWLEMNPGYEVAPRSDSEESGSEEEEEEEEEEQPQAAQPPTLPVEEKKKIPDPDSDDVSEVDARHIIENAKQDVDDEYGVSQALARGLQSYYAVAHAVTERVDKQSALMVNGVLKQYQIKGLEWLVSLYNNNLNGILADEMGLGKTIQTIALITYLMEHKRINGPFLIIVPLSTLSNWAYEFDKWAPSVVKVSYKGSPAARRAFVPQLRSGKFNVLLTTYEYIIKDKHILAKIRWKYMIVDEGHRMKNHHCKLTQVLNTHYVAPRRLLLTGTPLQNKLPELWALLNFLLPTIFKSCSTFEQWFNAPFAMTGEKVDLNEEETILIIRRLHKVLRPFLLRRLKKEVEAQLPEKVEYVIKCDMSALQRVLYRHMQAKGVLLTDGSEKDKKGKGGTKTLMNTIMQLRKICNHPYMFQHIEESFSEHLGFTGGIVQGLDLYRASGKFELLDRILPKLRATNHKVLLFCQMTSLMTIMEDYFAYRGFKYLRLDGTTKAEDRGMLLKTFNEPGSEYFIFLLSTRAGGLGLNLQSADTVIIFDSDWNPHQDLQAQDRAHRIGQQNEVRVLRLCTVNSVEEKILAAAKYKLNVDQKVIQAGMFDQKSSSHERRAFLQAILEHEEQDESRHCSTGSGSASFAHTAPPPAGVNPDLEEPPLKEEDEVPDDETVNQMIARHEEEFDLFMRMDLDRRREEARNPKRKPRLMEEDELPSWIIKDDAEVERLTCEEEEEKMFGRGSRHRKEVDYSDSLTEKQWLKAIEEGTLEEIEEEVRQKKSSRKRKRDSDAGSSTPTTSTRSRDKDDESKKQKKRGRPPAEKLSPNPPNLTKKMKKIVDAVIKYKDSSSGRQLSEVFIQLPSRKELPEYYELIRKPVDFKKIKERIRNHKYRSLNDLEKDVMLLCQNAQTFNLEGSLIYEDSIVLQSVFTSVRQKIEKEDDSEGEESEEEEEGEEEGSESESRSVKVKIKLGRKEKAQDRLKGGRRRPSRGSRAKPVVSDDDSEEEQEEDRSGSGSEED
# experiment: SMARCA4 Western blot MV4-11 degradation
# Type: cell-based
# reported-conditions: MV4-11 cells, 24 h; read-out: SMARCA4 MSD MV411 degradation 24 h: Mean external-Abs DC50

Guide cases for DC50, answers given:
Req: Observed DC50 on SMARCA4 (Homo sapiens) for Cc1n[nH]c(C)c1-c1ccc(CNC(=O)[C@@H]2C[C@@H](O)CN2C(=O)[C@@H](NC(=O)[C@H]2CC3(C2)C[C@H](N2CCC(c4cnc(N5C6CCC5CN(c5cc(-c7ccccc7O)nnc5N)C6)nc4)CC2)C3)C(C)(C)C)cc1 (some centres unmarked) [I-32] , please.
Resp: > 1000 nM

Req: Observed DC50 on SMARCA4 (Homo sapiens) for Cc1ncsc1-c1ccc(CNC(=O)[C@@H]2C[C@@H](O)CN2C(=O)[C@@H](NC(=O)C2CC3(C2)CN(C2CCC(c4cnc(N5C6CCC5CN(c5cc(-c7ccccc7O)nnc5N)C6)nc4)CC2)C3)C(C)(C)C)cc1 (some centres unmarked) , please.
Resp: > 1000 nM

Req: Observed DC50 on SMARCA4 (Homo sapiens) for Cc1ncsc1-c1cnc(CNC(=O)[C@@H]2C[C@@H](O)CN2C(=O)[C@@H](NC(=O)[C@H]2CC3(C2)C[C@H](N2CCC(c4ccc(N5C6CCC5CN(c5cc(-c7ccccc7O)nnc5N)C6)cc4)CC2)C3)C(C)(C)C)nc1 (some centres unmarked) [I-25] , please.
Resp: > 1000 nM

Req: Observed DC50 on SMARCA4 (Homo sapiens) for Cc1ncsc1-c1cnc(CNC(=O)[C@@H]2C[C@@H](O)CN2C(=O)[C@@H](NC(=O)[C@H]2CC3(C2)C[C@H](N2CCC(c4ccc(N5C6CCC5CN(c5cc(-c7ccccc7O)nnc5N)C6)cc4)CC2)C3)C(C)(C)C)cn1 (some centres unmarked) [I-29] , please.
Resp: > 1000 nM

Req: Observed DC50 on SMARCA4 (Homo sapiens) for Cc1ncsc1-c1ccc(CNC(=O)[C@@H]2C[C@@H](O)CN2C(=O)C(c2cc(N3CCC(N4CCC(c5cnc(N6C7CCC6CN(c6cc(-c8ccccc8O)nnc6N)C7)nc5)CC4)CC3)no2)C(C)C)cc1 (mixture of isomers) , please.
Resp: < 100 nM

Req: Observed DC50 on SMARCA4 (Homo sapiens) for Cc1ncsc1-c1cnc(CNC(=O)[C@@H]2C[C@@H](O)CN2C(=O)[C@@H](NC(=O)[C@H]2CC3(C2)C[C@H](N2CCC(c4ccc(N5C6CCC5CN(c5cc(-c7ccccc7O)nnc5N)C6)cc4)CC2)C3)C(C)(C)C)nc1 (some centres unmarked) [I-26] , please.
Resp: > 1000 nM

Req: Observed DC50 on SMARCA4 (Homo sapiens) for Cc1ncsc1-c1cnc(CNC(=O)[C@@H]2C[C@@H](O)CN2C(=O)[C@@H](NC(=O)[C@H]2CC3(C2)C[C@H](N2CCC(c4ccc(N5C6CCC5CN(c5cc(-c7ccccc7O)nnc5N)C6)cc4)CC2)C3)C(C)(C)C)cn1 (some centres unmarked) [I-30] , please.
Resp: > 1000 nM

Req: Observed DC50 on SMARCA4 (Homo sapiens) for Cc1ncsc1-c1ccc(CNC(=O)[C@@H]2C[C@@H](O)CN2C(=O)[C@H](c2cc(OCCCN3CCC(c4cnc(N5C6CCC5CN(c5cc(-c7ccccc7O)nnc5N)C6)nc4)CC3)no2)C(C)C)cc1 , please.
Resp: < 100 nM

New cases:
Req: Observed DC50 on SMARCA4 (Homo sapiens) for Cc1ncsc1-c1ccc(CNC(=O)[C@@H]2C[C@@H](O)CN2C(=O)C(c2cc(N3CCC(CCN4CCC(c5cnc(N6C7CCC6CN(c6cc(-c8ccccc8O)nnc6N)C7)nc5)CC4)CC3)no2)C(C)C)cc1 (some centres unmarked) , please.
Resp: < 100 nM

Req: Observed DC50 on SMARCA4 (Homo sapiens) for Cc1ncsc1-c1ccc(CNC(=O)[C@@H]2C[C@@H](O)CN2C(=O)[C@@H](NC(=O)[C@H]2CC3(C2)C[C@H](N2CCC(c4ccc(N5C6CCC5CN(c5cc(-c7ccccc7O)nnc5N)C6)cc4)CC2)C3)C(C)(C)C)nc1 (some centres unmarked) [I-23] , please.
Resp: > 1000 nM

Req: Observed DC50 on SMARCA4 (Homo sapiens) for Cc1ncsc1-c1ccc(CNC(=O)[C@@H]2C[C@@H](O)CN2C(=O)[C@@H](NC(=O)C2CC3(C2)CC(N2CCC(COc4ccc(N5C6CCC5CN(c5cc(-c7ccccc7O)nnc5N)C6)cn4)CC2)C3)C(C)(C)C)cc1 (some centres unmarked) , please.
Resp: > 1000 nM

Req: Observed DC50 on SMARCA4 (Homo sapiens) for Cc1ncsc1-c1ccc(CNC(=O)[C@@H]2C[C@@H](O)CN2C(=O)[C@@H](NC(=O)[C@H]2CC3(C2)C[C@H](N2CCC(c4ccc(N5C6CCC5CN(c5cc(-c7ccccc7O)nnc5N)C6)cc4)CC2)C3)C(C)(C)C)cn1 (some centres unmarked) [I-28] , please.
Resp: > 1000 nM

Req: Observed DC50 on SMARCA4 (Homo sapiens) for Cc1ncsc1-c1ccc(CNC(=O)[C@@H]2C[C@@H](O)CN2C(=O)C(c2cc(OCCN3CCC(c4cnc(N5C6CCC5CN(c5cc(-c7ccccc7O)nnc5N)C6)nc4)CC3)no2)C(C)C)cc1 (some centres unmarked) , please.
Resp: < 100 nM

Req: Observed DC50 on SMARCA4 (Homo sapiens) for Cc1ncsc1-c1ccc(CNC(=O)[C@@H]2C[C@@H](O)CN2C(=O)[C@@H](NC(=O)[C@H]2CC3(C2)C[C@H](N2CCN(c4cnc(N5C6CCC5CN(c5cc(-c7ccccc7O)nnc5N)C6)nc4)CC2)C3)C(C)(C)C)cc1 (single isomer, unassigned) [I-8] , please.
Resp: > 1000 nM

Req: Observed DC50 on SMARCA4 (Homo sapiens) for Cc1nccn1-c1ccc(CNC(=O)[C@@H]2C[C@@H](O)CN2C(=O)[C@@H](NC(=O)[C@H]2CC3(C2)C[C@H](N2CCC(c4cnc(N5C6CCC5CN(c5cc(-c7ccccc7O)nnc5N)C6)nc4)CC2)C3)C(C)(C)C)cc1 (some centres unmarked) [I-34] , please.
Resp: > 1000 nM

Req: Observed DC50 on SMARCA4 (Homo sapiens) for Cc1ncsc1-c1ccc(CNC(=O)[C@@H]2C[C@@H](O)CN2C(=O)[C@@H](NC(=O)[C@H]2CCC3(CC2)C[C@H](N2CCC(c4cnc(N5C6CCC5CN(c5cc(-c7ccccc7O)nnc5N)C6)nc4)CC2)C3)C(C)(C)C)cc1 (some centres unmarked) [I-43] , please.
Resp: > 1000 nM

Req: Observed DC50 on SMARCA4 (Homo sapiens) for Cc1ncsc1-c1ccc(CNC(=O)[C@@H]2C[C@@H](O)CN2C(=O)[C@@H](NC(=O)[C@H]2CC3(C2)C[C@H](N2CCC(Oc4ccc(N5C6CCC5CN(c5cc(-c7ccccc7O)nnc5N)C6)cn4)CC2)C3)C(C)(C)C)cc1 (some centres unmarked) [I-39] , please.
Resp: > 1000 nM
